System: rodent lifetime carcinogenesis bioassay, tumor incidence TD50
Experiment: carcinogenic potency in animals, long-term in vivo studies, CPDB compilation (AID 1745844)
Details: rat; strain Fischer 344; females; in drinking water; site: liver; lesion: hepatocellular carcinoma; dosed 30 weeks; study length 110 weeks
endpoint_label: TD50

* CN(C)N=O | 0.135 mg/kg/day

* * *

Test system: rodent lifetime carcinogenesis bioassay, tumor incidence TD50
Assay: carcinogenic potency in animals, long-term in vivo studies, CPDB compilation (AID 1745844)
Settings: rat; strain Fischer 344; males; by gavage; site: multiple organs + peritoneum + tunica vaginalis; lesion: mesothelioma, malignant + mesothelioma, NOS; dosed 103 weeks; study length 104 weeks
Calls of active or inactive are those of the source. The rule behind the calls is not given here.
endpoint_label: TD50

- ClCC(Cl)(Cl)Cl: 842 mg/kg/day (inactive)

* * *

Tested on: rodent lifetime carcinogenesis bioassay, tumor incidence TD50
Assay: carcinogenic potency in animals, long-term in vivo studies, CPDB compilation (AID 1745844)
Conditions: hamster; strain Syrian Golden; females; by gavage; site: pancreatic duct; lesion: adenoma; dosed 59 weeks; study length 83 weeks
endpoint_label: TD50

* CC1CN(N=O)CC(C)O1 (stereo unspecified) | 6.99 mg/kg/day

* * *

Tested on: rodent lifetime carcinogenesis bioassay, tumor incidence TD50
Test: carcinogenic potency in animals, long-term in vivo studies, CPDB compilation (AID 1745844)
Details: mouse; strain Charles River CD1; males; by gavage; site: liver; lesion: several types; types named in the paper; dosed 92 weeks; study length 92 weeks
endpoint_label: TD50

- CC[C@H](C)C(=O)O[C@H]1C[C@@H](C)C=C2C=C[C@H](C)[C@H](CC[C@@H]3C[C@@H](O)CC(=O)O3)[C@H]21: 439 mg/kg/day

* * *

System: rodent lifetime carcinogenesis bioassay, tumor incidence TD50
Test: carcinogenic potency in animals, long-term in vivo studies, CPDB compilation (AID 1745844)
Conditions: rat; strain Sprague-Dawley albino; both sexes; in feed; site: any site (literature study); lesion: several types; types named in the paper; dosed 104 weeks; study length 104 weeks
endpoint_label: TD50 (mg/kg/day)

- C#C[C@]1(OC(C)=O)CC[C@H]2[C@@H]3CCC4=CC(=O)CC[C@@H]4[C@H]3CC[C@@]21C (tested in a mixture with another compound): 14.2

* * *

System: rodent lifetime carcinogenesis bioassay, tumor incidence TD50
Assay: carcinogenic potency in animals, long-term in vivo studies, CPDB compilation (AID 1745844)
Conditions: rat; strain Fischer 344; males; in drinking water; site: Zymbal's gland; lesion: adenoma + carcinoma; dosed 104 weeks; study length 104 weeks
endpoint_label: TD50

- Cc1ccc(S(=O)(=O)Oc2ccc(N=Nc3ccc(-c4ccc(N=Nc5c(O)ccc6cc(S(=O)(=O)O)cc(S(=O)(=O)O)c56)c(C)c4)cc3C)cc2)cc1: 27 mg/kg/day

* * *

Tested on: rodent lifetime carcinogenesis bioassay, tumor incidence TD50
Assay: carcinogenic potency in animals, long-term in vivo studies, CPDB compilation (AID 1745844)
Details: mouse; strain Swiss albino; males; in drinking water; site: lung; lesion: adenoma; dosed 118 weeks; study length 118 weeks
endpoint_label: TD50

- NNC(N)=O: 745 mg/kg/day

* * *

Test system: rodent lifetime carcinogenesis bioassay, tumor incidence TD50
Assay: carcinogenic potency in animals, long-term in vivo studies, CPDB compilation (AID 1745844)
Conditions: rat; strain Fischer 344; males; by gavage; site: esophagus + forestomach + lip + nasal cavity + palate + tongue; lesion: squamous-cell carcinoma + squamous-cell papilloma + adenocarcinoma + carcinoma, NOS; dosed 94 weeks; study length 104 weeks
endpoint_label: TD50 (mg/kg/day)

• CC(C)=CCl = 17.5
